fold difference in affinity vs original values, listed per item
- target.or.system: T1, IL-1β (UniProt P01584 117-269)
- T1 construct: Antigen immobilised on the Biacore chip
- protocol.description: Biacore, periplasmic extract
Give the value, in units of fold, as a plain number.

{"columns": ["binder", "fold difference in affinity vs original [fold]"],
 "data": [
  ["XPA23 light chain D28E (Fab, V domains shown) VH: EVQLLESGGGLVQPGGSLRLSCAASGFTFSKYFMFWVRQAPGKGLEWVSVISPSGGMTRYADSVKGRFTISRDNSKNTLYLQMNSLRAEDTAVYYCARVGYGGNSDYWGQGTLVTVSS VL: DIQMTQSPSSVSASVGDRLTIICRASQEINRWLAWYQQTPGNAPKLLIHSATSLQSGVPSRFSGSGSGTDFTLTINSLQPEDFATYYCQQADSFPLTFGGGTKVEIK", 0.74],
  ["XPA23 light chain Q27H (Fab, V domains shown) VH: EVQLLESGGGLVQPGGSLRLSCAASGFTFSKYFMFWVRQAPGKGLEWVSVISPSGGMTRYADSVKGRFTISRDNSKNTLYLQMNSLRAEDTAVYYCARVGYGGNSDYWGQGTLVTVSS VL: DIQMTQSPSSVSASVGDRLTIICRASHDINRWLAWYQQTPGNAPKLLIHSATSLQSGVPSRFSGSGSGTDFTLTINSLQPEDFATYYCQQADSFPLTFGGGTKVEIK", 1.09],
  ["XPA23 light chain A51G (Fab, V domains shown) VH: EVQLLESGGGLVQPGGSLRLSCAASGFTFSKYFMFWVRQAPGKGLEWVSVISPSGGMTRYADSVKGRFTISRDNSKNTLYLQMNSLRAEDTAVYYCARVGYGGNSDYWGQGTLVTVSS VL: DIQMTQSPSSVSASVGDRLTIICRASQDINRWLAWYQQTPGNAPKLLIHSGTSLQSGVPSRFSGSGSGTDFTLTINSLQPEDFATYYCQQADSFPLTFGGGTKVEIK", 3.84]
]}

Record request: fold difference in affinity vs original value, item XPA23 light chain N30K (Fab, V domains shown) VH: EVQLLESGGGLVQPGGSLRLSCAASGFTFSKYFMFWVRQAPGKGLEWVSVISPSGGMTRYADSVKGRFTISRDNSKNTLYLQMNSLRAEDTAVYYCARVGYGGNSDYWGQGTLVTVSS VL: DIQMTQSPSSVSASVGDRLTIICRASQDIKRWLAWYQQTPGNAPKLLIHSATSLQSGVPSRFSGSGSGTDFTLTINSLQPEDFATYYCQQADSFPLTFGGGTKVEIK
0.61

So what's the measured fold difference in affinity vs original for this one? XPA23 light chain D28L (Fab, V domains shown) VH: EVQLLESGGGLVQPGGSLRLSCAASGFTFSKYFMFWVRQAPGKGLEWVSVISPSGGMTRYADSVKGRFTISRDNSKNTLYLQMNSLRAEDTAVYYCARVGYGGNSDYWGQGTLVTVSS VL: DIQMTQSPSSVSASVGDRLTIICRASQLINRWLAWYQQTPGNAPKLLIHSATSLQSGVPSRFSGSGSGTDFTLTINSLQPEDFATYYCQQADSFPLTFGGGTKVEIK
9.64

Which fold difference in affinity vs original is reported for this binder? XPA23 light chain T52F (Fab, V domains shown) VH: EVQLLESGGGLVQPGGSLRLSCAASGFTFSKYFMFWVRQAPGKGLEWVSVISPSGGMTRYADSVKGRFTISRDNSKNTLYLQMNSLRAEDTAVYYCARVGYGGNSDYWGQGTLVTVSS VL: DIQMTQSPSSVSASVGDRLTIICRASQDINRWLAWYQQTPGNAPKLLIHSAFSLQSGVPSRFSGSGSGTDFTLTINSLQPEDFATYYCQQADSFPLTFGGGTKVEIK
1.05
